assay target: T1, synthetic amyloid-like fibrils of recombinant amyloidogenic λ6 variable domain protein (rVλ6Wil)
T1 construct: domain: λ6 variable domain; Fibrillar aggregate of many copies; also called rVλ6Wil fibrils; rVλ6Wil synthetic fibrils
procedure text: pulldown, labelled antibody
assay endpoint: percent bound (%)
Could you give me the number in %? Just the number is fine.

Examples from the recorded data:
{"binder": "murine Ig-peptide fusion Igp5 (murine 11-1F4 with peptide p5 fused to the N-terminus of the light chain) (antibody, Antibody-peptide fusion; unlabelled in the EuLISA; also called mIgp5; mIgG-p5; not shown: murine 11-1F4 (IgG1) CH1 followed by murine IgG2a CH2-CH3 (pFUSE-mIgG2A-Fc); murine 11-1F4 kappa constant region (CL)) heavy: QVQLKESGPGLVAPSQSLSITCTVSGFSLSSYGVSWVRQPPGKGLEWLGVIWGDGSTNYHPNLMSRLSISKDISKSQVLFKLNSLQTDDTATYYCVTLDYWGQGTSVTVSS light: AQAGQAGQAQGGGYSKAQKAQAKQAKQAQKAQKAQAKQAKQVTPTVDVVMTQTPLSLPVSLGDQASISCRSSQSLVHRNGNTYLHWYLQKPGQSPKLLIYKVSNRFSGVPDRFSGSGSGTDFTLKISRVEAEDLGLYFCFQTTYVPNTFGGGTKLEIK", "assay endpoint": "percent bound", "unit string": "%", "result number": 71}
{"binder": "VH9/VL4-p5R (humanized VH9/VL4 with peptide p5R fused to the N-terminal of the light chain) (antibody, V domains shown) VH: QVQLQESGPGLVKPSETLSLTCTVSGFSLSSYGVSWIRQPPGKGLEWLGVIWGDGSTNYHPNLMSRVTISVDTSKSQVLFKLSSVTAADTAVYYCATLDYWGQGTSVTVSS VL: DVVMTQSPLSLPVTLGQPASISCRSSQSLVHRNGNTYLHWFQQRPGQSPRLLIYKVSNRFSGVPDRFSGSGSGTDFTLKISRVEAEDVGVYFCFQTTYVPNTFGGGTKLEIK", "assay endpoint": "percent bound", "unit string": "%", "result number": 22.6}
{"binder": "VH9/VL4-p5 (humanized VH9/VL4 with peptide p5 fused to the N-terminal of the light chain) (antibody, V domains shown) VH: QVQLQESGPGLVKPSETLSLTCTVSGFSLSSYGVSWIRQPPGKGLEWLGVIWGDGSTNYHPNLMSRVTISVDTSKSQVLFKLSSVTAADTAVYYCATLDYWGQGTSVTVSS VL: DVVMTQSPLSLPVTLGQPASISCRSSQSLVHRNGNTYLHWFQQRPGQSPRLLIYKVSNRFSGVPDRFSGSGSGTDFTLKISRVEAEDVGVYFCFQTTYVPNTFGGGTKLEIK", "assay endpoint": "percent bound", "unit string": "%", "result number": 24.7}

Turning now to a further record.
## Task Report percent bound for VH6/VL3-p5 (humanized VH6/VL3 with peptide p5 fused to the N-terminal of the light chain) (antibody, V domains shown) VH: QVQLQESGPGLVKPSETLSLTCTVSGFSLSSYGVSWVRQPPGKGLEWLGVIWGDGSTNYHPNLMSRLSISKDTSKNQFSLKLSSVTAADTATYYCVTLDYWGQGTSVTVSS VL: DVVMTQSPLSLPVTLGQPASISCRSSQSLVHRNGNTYLHWYLQRPGQSPRLLIYKVSNRFSGVPDRFSGSGSGTDFTLKISRVEAEDVGLYFCFQTTYVPNTFGGGTKLEIK please.
## Result 22.5
